System: GLXMA
Test: Post-emergence effects on crop plants (Table F4)
Assay type: in vivo, Glycine max
Settings: application rate 320 g/ha, crop plant GLXMA
What post-emergence activity against GLXMA was measured for each of the following?
Give the value in % but do not write % after it.

Provide the documented post-emergence activity against GLXMA with GLXMA as the system for Cc1cccc(CN2CCCC3(CCCN(Cc4cccc(C)c4F)C3=O)C2=O)c1F (racemic)
0

Provide the documented post-emergence activity against GLXMA with GLXMA as the system for O=C1N(Cc2ccccc2Cl)CCC12CCCN(Cc1c(F)cccc1F)C2=O (racemic)
0

Provide the documented post-emergence activity against GLXMA with GLXMA as the system for O=C1N(Cc2c(F)cccc2F)CCCC12CCN(Cc1c(F)cccc1F)C2=O (racemic)
0

Provide the documented post-emergence activity against GLXMA with GLXMA as the system for O=C1N(Cc2cc(F)ccc2Cl)CCCC12CCCN(Cc1cc(F)ccc1Cl)C2=O (racemic)
20

Provide the documented post-emergence activity against GLXMA with GLXMA as the system for O=C1N(Cc2cccc(F)c2Cl)CCCC12CCCN(Cc1cccc(F)c1Cl)C2=O (racemic)
20

Provide the documented post-emergence activity against GLXMA with GLXMA as the system for O=C1N(Cc2cccs2)CCCC12CCCN(Cc1c(F)cccc1F)C2=O (racemic)
20

Provide the documented post-emergence activity against GLXMA with GLXMA as the system for O=C1N(Cc2ccc(F)cc2F)CCCC12CCCN(Cc1ccc(F)cc1F)C2=O (racemic)
10

Provide the documented post-emergence activity against GLXMA with GLXMA as the system for O=C1N(Cc2c(F)cccc2F)CCCC12CCCN(Cc1c(F)cccc1F)C2=O (single isomer, unassigned; (+))
0

Provide the documented post-emergence activity against GLXMA with GLXMA as the system for O=C1N(Cc2c(F)cccc2Cl)CCCC12CCCN(Cc1c(F)cccc1Cl)C2=O (racemic)
10

Provide the documented post-emergence activity against GLXMA with GLXMA as the system for O=C1N(Cc2ccsc2)CCCC12CCCN(Cc1cccc(F)c1F)C2=O (racemic)
0

====

What pre-emergence activity against ORYZA was measured for each of the following?
System: ORYZA
Assay: Pre-emergence effects on crop plants (Table D3)
Conditions: crop plant; application rate 320 g/ha; visual grading after ca. 3 weeks
Numeric answer plus unit only.

# get_value(readout='pre-emergence activity against ORYZA', item= O=C1N(Cc2ccccc2Cl)CCCC12CCN(Cc1cccc(F)c1F)C2=O (racemic) )
0%

# get_value(readout='pre-emergence activity against ORYZA', item= O=C1N(Cc2ccccc2F)CCCC12CCN(Cc1ccccc1Cl)C2=O (racemic) )
0%

# get_value(readout='pre-emergence activity against ORYZA', item= O=C1N(Cc2cccc(F)c2Cl)CCCC12CCCN(Cc1cccc(F)c1Cl)C2=O (racemic) )
0%

# get_value(readout='pre-emergence activity against ORYZA', item= O=C1N(Cc2cc(F)ccc2Cl)CCCC12CCCN(Cc1cc(F)ccc1Cl)C2=O (racemic) )
20%

# get_value(readout='pre-emergence activity against ORYZA', item= Cc1cccc(CN2CCCC3(CCCN(Cc4cccc(C)c4F)C3=O)C2=O)c1F (racemic) )
0%

# get_value(readout='pre-emergence activity against ORYZA', item= O=C1N(Cc2c(F)cccc2Cl)CCCC12CCCN(Cc1c(F)cccc1Cl)C2=O (racemic) )
0%

# get_value(readout='pre-emergence activity against ORYZA', item= O=C1N(Cc2cccc(F)c2F)CCCC12CCCN(Cc1cccc(F)c1F)C2=O (racemic) )
10%

# get_value(readout='pre-emergence activity against ORYZA', item= O=C1N(Cc2cc(F)ccc2F)CCCC12CCCN(Cc1cc(F)ccc1F)C2=O (racemic) )
20%
